Provenance of the data: ChEMBL document CHEMBL3880422

For each of the compounds below, state its log10 of Ratio.
target: Caspase-1 (Mus musculus) (UniProt P29452); assay: Inhibition of mouse recombinant ICE assessed as ratio of irreversible rate constant K3 to dissociation constant of the reversible binding step Ki pre-incubated for 60 mins with Acetyl-Tyr-Val-Ala-Asp-amino-4-methylcoumarin substrate followed by enzyme addition by fluorescence based assay
Sequence (P29452 119-296 limits assumed): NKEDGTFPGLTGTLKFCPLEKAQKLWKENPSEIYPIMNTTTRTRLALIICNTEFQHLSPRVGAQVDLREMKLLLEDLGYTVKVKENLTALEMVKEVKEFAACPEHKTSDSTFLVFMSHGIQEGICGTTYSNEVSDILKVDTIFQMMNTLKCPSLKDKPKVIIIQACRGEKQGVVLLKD
Sequence (P29452 315-402 limits assumed): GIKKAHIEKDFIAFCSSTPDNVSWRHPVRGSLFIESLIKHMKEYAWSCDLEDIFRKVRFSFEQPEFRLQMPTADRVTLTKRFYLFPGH
log10 Ratio, M⁻¹ s⁻¹

Count: 5. Required value per item: log10 of Ratio.
1. CC(C)[C@H](NC(=O)C(=O)Nc1ccc(F)cc1)C(=O)N[C@@H](CC(=O)O)C(=O)COc1c(F)c(F)cc(F)c1F
2. C[C@H](NC(=O)C(=O)NCc1ccccc1)C(=O)N[C@@H](CC(=O)O)C(=O)COc1c(F)c(F)cc(F)c1F
3. C[C@H](NC(=O)C(=O)NCCc1ccccc1)C(=O)N[C@@H](CC(=O)O)C(=O)COP(=O)(c1ccccc1)c1ccccc1
4. CC(C)[C@H](NC(=O)C(=O)NCCc1ccccc1)C(=O)N[C@@H](CC(=O)O)C(=O)COc1c(F)c(F)cc(F)c1F
5. C[C@H](NC(=O)C(=O)NCc1cccc2ccccc12)C(=O)N[C@@H](CC(=O)O)C(=O)COc1c(F)c(F)cc(F)c1F

### Response
[5.96, 4.14, 6.09, 4.89, 6.41]

Count: 8. Required value per item: log10 of Ratio.
1. CCCCCCCc1ccc(NC(=O)C(=O)N[C@H](C(=O)N[C@@H](CC(=O)O)C(=O)COc2c(F)c(F)cc(F)c2F)C(C)C)cc1
2. CC(C)[C@H](NC(=O)C(=O)Nc1ccccc1Br)C(=O)N[C@@H](CC(=O)O)C(=O)COc1c(F)c(F)cc(F)c1F
3. C[C@H](NC(=O)C(=O)Nc1ccccc1F)C(=O)N[C@@H](CC(=O)O)C(=O)COc1c(F)c(F)cc(F)c1F
4. CC(C)[C@H](NC(=O)C(=O)Nc1ccccc1-c1ccccc1)C(=O)N[C@@H](CC(=O)O)C(=O)COc1c(F)c(F)cc(F)c1F
5. CC(C)[C@H](NC(=O)C(=O)Nc1cccc2ccccc12)C(=O)N[C@@H](CC(=O)O)C(=O)COc1ccc(O)cc1
6. C[C@H](NC(=O)C(=O)Nc1ccc(F)cc1)C(=O)N[C@@H](CC(=O)O)C(=O)COC(=O)c1c(Cl)cccc1Cl
7. CC(C)[C@H](NC(=O)C(=O)Nc1c(F)c(F)nc(F)c1F)C(=O)N[C@@H](CC(=O)O)C(=O)COc1c(F)c(F)cc(F)c1F
8. CC(C)[C@H](NC(=O)C(=O)Nc1cnccn1)C(=O)N[C@@H](CC(=O)O)C(=O)COc1c(F)c(F)cc(F)c1F

### Response
1. 5.82
2. 6.03
3. 5.53
4. 5.10
5. 6.26
6. 4.07
7. 6.09
8. 6.41

compound C[C@H](NC(=O)C(=O)Nc1ccccc1F)C(=O)N[C@@H](CC(=O)O)C(=O)COC(=O)c1c(Cl)cccc1Cl , log10 of Ratio observed: 5.24

* * *

For each of the molecules below, state its Ratio.
biological target: Caspase-6 (Homo sapiens) (UniProt P55212); assay: Inhibition of recombinant MCH2 (unknown origin) assessed as ratio of irreversible rate constant K3 to dissociation constant of the reversible binding step Ki pre-incubated for 60 mins with Acetyl-Tyr-Val-Ala-Asp-amino-4-methylcoumarin substrate followed by enzyme addition by fluorescence based assay
Sequence (P55212 24-179 limits assumed): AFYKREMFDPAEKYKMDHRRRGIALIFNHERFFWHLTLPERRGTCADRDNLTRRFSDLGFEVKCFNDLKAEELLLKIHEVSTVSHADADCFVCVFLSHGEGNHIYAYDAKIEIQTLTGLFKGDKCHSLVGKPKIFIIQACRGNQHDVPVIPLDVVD
Sequence (P55212 194-293 limits assumed): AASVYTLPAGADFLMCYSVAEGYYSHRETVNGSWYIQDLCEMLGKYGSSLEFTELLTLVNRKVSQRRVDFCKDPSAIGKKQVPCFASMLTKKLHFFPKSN
Where a SMILES comes first, the peptide text is derived from it. The star is where a group is joined. Cbz = O=C(OCc1ccccc1)*; CH2F = FC*
Answers are plain numbers, in M⁻¹ s⁻¹.

Count: 4. Required value per item: Ratio.
1. C[C@H](NC(=O)C(=O)Nc1ccccc1Cc1ccccc1)C(=O)N[C@@H](CC(=O)O)C(=O)COc1c(F)c(F)cc(F)c1F
2. C[C@H](NC(=O)C(=O)Nc1cc(C(C)(C)C)ccc1C(C)(C)C)C(=O)N[C@@H](CC(=O)O)C(=O)COC(=O)c1c(Cl)cccc1Cl
3. C[C@H](NC(=O)C(=O)NCc1cccc2ccccc12)C(=O)N[C@@H](CC(=O)O)C(=O)COP(=O)(c1ccccc1)c1ccccc1
4. CC(C)[C@H](NC(=O)C(=O)Nc1cccc2ccccc12)C(=O)N[C@@H](CC(=O)O)C(=O)COc1c(F)cc(F)cc1F

### Response
1. 5850
2. 146000
3. 186000
4. 37400

Count: 2. Required value per item: Ratio.
1. CCCCCCCc1ccc(NC(=O)C(=O)N[C@H](C(=O)N[C@@H](CC(=O)O)C(=O)COc2c(F)c(F)cc(F)c2F)C(C)C)cc1
2. CC(C)[C@H](NC(=O)OCc1ccccc1)C(=O)N[C@@H](C)C(=O)N[C@@H](CC(=O)O)C(=O)CF (Cbz-Val-Ala-Asp-CH2F)

### Response
[50000, 2950]

* * *

biological target: Caspase-6 (Homo sapiens) (UniProt P55212); assay: Inhibition of recombinant MCH2 (unknown origin) assessed as ratio of irreversible rate constant K3 to dissociation constant of the reversible binding step Ki pre-incubated for 60 mins with Acetyl-Tyr-Val-Ala-Asp-amino-4-methylcoumarin substrate followed by enzyme addition by fluorescence based assay
So basically, if Ratio comes in under 80000 M⁻¹ s⁻¹ it's 1 (yes), and if it's 80000 M⁻¹ s⁻¹ or more it's 0 (no).

### Prompt Item CC(C)[C@H](NC(=O)C(=O)Nc1cccc2ccccc12)C(=O)N[C@@H](CC(=O)O)C(=O)COc1cccc2ccccc12 : Ratio beneath 80000 M⁻¹ s⁻¹, strictly?
### Response 0 (no)

### Prompt Item C[C@H](NC(=O)C(=O)Nc1ccccc1-c1ccccc1)C(=O)N[C@@H](CC(=O)O)C(=O)COc1ccccc1F : Ratio beneath 80000 M⁻¹ s⁻¹, strictly?
### Response 1 (yes)

### Prompt Item CC(C)[C@H](NC(=O)C(=O)Nc1cccc2ccccc12)C(=O)N[C@@H](CC(=O)O)C(=O)COc1c(-c2ccccc2)oc2ccccc2c1=O : Ratio beneath 80000 M⁻¹ s⁻¹, strictly?
### Response 1 (yes)

### Prompt Item CC(C)[C@H](NC(=O)C(=O)Nc1ccccc1I)C(=O)N[C@@H](CC(=O)O)C(=O)COc1c(F)c(F)cc(F)c1F : Ratio beneath 80000 M⁻¹ s⁻¹, strictly?
### Response 0 (no)

### Prompt Item CC(C)[C@H](NC(=O)C(=O)Nc1ccncc1)C(=O)N[C@@H](CC(=O)O)C(=O)COc1c(F)c(F)cc(F)c1F : Ratio beneath 80000 M⁻¹ s⁻¹, strictly?
### Response 1 (yes)

### Prompt Item CC(C)[C@H](NC(=O)C(=O)NC12CC3CC(CC(C3)C1)C2)C(=O)N[C@@H](CC(=O)O)C(=O)COc1c(F)c(F)cc(F)c1F : Ratio beneath 80000 M⁻¹ s⁻¹, strictly?
### Response 1 (yes)

* * *

biological target: Caspase-8 (Homo sapiens); experiment: Inhibition of recombinant MCH5 (unknown origin) assessed as ratio of irreversible rate constant K3 to dissociation constant of the reversible binding step Ki pre-incubated for 60 mins with Acetyl-Tyr-Val-Ala-Asp-amino-4-methylcoumarin substrate followed by enzyme addition by fluorescence based assay
READOUT: Ratio (M⁻¹ s⁻¹)
Give bare numbers, in M⁻¹ s⁻¹.

MOLECULE	UNITS SYMBOL	Ratio
C[C@H](NC(=O)C(=O)Nc1ccccc1I)C(=O)N[C@@H](CC(=O)O)C(=O)COP(=O)(c1ccccc1)c1ccccc1	M⁻¹ s⁻¹	46300

Count: 4. Required value per item: Ratio.
1. CC(C)[C@H](NC(=O)C(=O)Nc1nc2ccccc2[nH]1)C(=O)N[C@@H](CC(=O)O)C(=O)COc1c(F)c(F)cc(F)c1F
2. CC(C)[C@H](NC(=O)C(=O)Nc1ccccc1C(F)(F)F)C(=O)N[C@@H](CC(=O)O)C(=O)COc1c(F)c(F)cc(F)c1F
3. C[C@H](NC(=O)C(=O)Nc1ccccc1-c1ccccc1)C(=O)N[C@@H](CC(=O)O)C(=O)COc1ccccc1F
4. CC(C)[C@H](NC(=O)C(=O)Nc1c(F)cccc1F)C(=O)N[C@@H](CC(=O)O)C(=O)COc1c(F)c(F)cc(F)c1F

### Response
1. 20800
2. 41000
3. 37800
4. 1.83e+06

Count: 5. Required value per item: Ratio.
1. C[C@H](NC(=O)C(=O)NCc1cccc2ccccc12)C(=O)N[C@@H](CC(=O)O)C(=O)COP(=O)(c1ccccc1)c1ccccc1
2. C[C@H](NC(=O)C(=O)NC1CCCCC1)C(=O)N[C@@H](CC(=O)O)C(=O)COC(=O)c1c(Cl)cccc1Cl
3. CCCOc1ccc(OCC(=O)[C@H](CC(=O)O)NC(=O)[C@@H](NC(=O)C(=O)Nc2cccc3ccccc23)C(C)C)cc1
4. CC(C)[C@H](NC(=O)C(=O)Nc1ccccc1Cl)C(=O)N[C@@H](CC(=O)O)C(=O)COc1c(F)c(F)cc(F)c1F
5. C[C@H](NC(=O)C(=O)NCc1cccc2ccccc12)C(=O)N[C@@H](CC(=O)O)C(=O)COC(=O)c1c(Cl)cccc1Cl

### Response
1: 82700; 2: 2.14e+06; 3: 286000; 4: 234000; 5: 936000

Count: 5. Required value per item: Ratio.
1. CCCCCCCc1ccc(NC(=O)C(=O)N[C@H](C(=O)N[C@@H](CC(=O)O)C(=O)COc2c(F)c(F)cc(F)c2F)C(C)C)cc1
2. C[C@H](NC(=O)C(=O)Nc1cc(C(F)(F)F)ccc1N1CCOCC1)C(=O)N[C@@H](CC(=O)O)C(=O)COP(=O)(c1ccccc1)c1ccccc1
3. C[C@H](NC(=O)C(=O)Nc1ccccc1Cc1ccccc1)C(=O)N[C@@H](CC(=O)O)C(=O)COc1c(F)c(F)cc(F)c1F
4. CC(C)[C@H](NC(=O)C(=O)Nc1cc(C(C)(C)C)ccc1C(C)(C)C)C(=O)N[C@@H](CC(=O)O)C(=O)COc1c(F)c(F)cc(F)c1F
5. CC(C)[C@H](NC(=O)C(=O)Nc1cccc2ccccc12)C(=O)NC(CC(=O)O)C(=O)CF (mixture of isomers)

### Response
1: 155000; 2: 441000; 3: 154000; 4: 51300; 5: 1.16e+06
